Reference for the values: patent US6818621B2

Consider the following substances; for each one, report its MI.
test system: MDA-MB-231 cells (CD44+ human breast adenocarcinoma cells); assay: Chemotactic chamber (Boyden) assay, migration through polycarbonate filters; assay type: cell-based; conditions: Table 4; migratory index

The value of MI measured for the substance LVIDPK (OTHER INFORMATION: Description of Artificial Sequence:Synthetic Peptide) [pepD] turned out to be 1

The value of MI measured for the substance LVLDP (OTHER INFORMATION: Description of Artificial Sequence:Synthetic Peptide) [pepG] turned out to be 0.1

The value of MI measured for the substance VLDPK (OTHER INFORMATION: Description of Artificial Sequence:Synthetic Peptide) [pepF] turned out to be 0.7

The value of MI measured for the substance LVLAPK (OTHER INFORMATION: Description of Artificial Sequence:Synthetic Peptide) [pepI] turned out to be 0.1

The value of MI measured for the substance KFHSHKDKLVLDPKSK (OTHER INFORMATION: Description of Artificial Sequence:Synthetic Peptide) [SP64] turned out to be 1

The value of MI measured for the substance LELDPK (OTHER INFORMATION: Description of Artificial Sequence:Synthetic Peptide) [pepH] turned out to be 0.3

The value of MI measured for the substance LVLDPK (OTHER INFORMATION: Description of Artificial Sequence:Synthetic Peptide) [peptide 51, chemotactic tryptic peptide of osteopontin] turned out to be 1

The value of MI measured for the substance LVLEPK (OTHER INFORMATION: Description of Artificial Sequence:Synthetic Peptide) [pepJ] turned out to be 0.6

The value of MI measured for the substance LVPDPK (OTHER INFORMATION: Description of Artificial Sequence:Synthetic Peptide) [pepB] turned out to be 1

The value of MI measured for the substance LVVDPK (OTHER INFORMATION: Description of Artificial Sequence:Synthetic Peptide) [pepA′] turned out to be 1

The value of MI measured for the substance LVLDEK (OTHER INFORMATION: Description of Artificial Sequence:Synthetic Peptide) [pepE] turned out to be 0.2

The value of MI measured for the substance LVPDSK (OTHER INFORMATION: Description of Artificial Sequence:Synthetic Peptide) [pepC] turned out to be 1

###

system: MDA-MB-231 cells (CD44+ human breast adenocarcinoma cells); assay: Chemotactic chamber (Boyden) assay, migration through polycarbonate filters; type: cell-based; conditions: Table 3; cells migrating in response to peptide/cells migration in response to LVLDPK
Consider the following substances; for each one, report its Migratory Index.
Enter a number only.

The value of Migratory Index measured for the substance LVPDSK (OTHER INFORMATION: Description of Artificial Sequence:Synthetic Peptide) [pepC] turned out to be 1

The value of Migratory Index measured for the substance LVLAPK (OTHER INFORMATION: Description of Artificial Sequence:Synthetic Peptide) [pepI] turned out to be 0.1

The value of Migratory Index measured for the substance LVLEPK (OTHER INFORMATION: Description of Artificial Sequence:Synthetic Peptide) [pepJ] turned out to be 0.6

The value of Migratory Index measured for the substance VLEP (OTHER INFORMATION: Description of Artificial Sequence:Synthetic Peptide) [pepJ′] turned out to be 0.1

The value of Migratory Index measured for the substance LVLDP (OTHER INFORMATION: Description of Artificial Sequence:Synthetic Peptide) [pepG] turned out to be 0.1

The value of Migratory Index measured for the substance ILVVDPK (OTHER INFORMATION: Description of Artificial Sequence:Synthetic Peptide) [pepK′] turned out to be 1.0

The value of Migratory Index measured for the substance LVLVPK (OTHER INFORMATION: Description of Artificial Sequence:Synthetic Peptide) [pepA] turned out to be 0.2
